Test system: Mycobacterium tuberculosis
ASSAY EXPLANATION: Antimicrobial activity against moxicillin resistant Mycobacterium tuberculosis H37Rv ATCC 27294 containing DNA gyrase G88N mutant
Assay type: functional
# log10(MIC) annotations
OUTCOME MEASURE: log10(MIC) (log10 of the value in µM)

| COMPOUND STRUCTURE STRING | MEASURED TARGET | log10(MIC) |
| --- | --- | --- |
| COc1cnc2ccc(=O)n(CCN3CCN(c4nc5cc(C#N)c(C)cc5[nH]4)CC3)c2c1 | Mycobacterium tuberculosis | 0.19 |
| COc1c(N2C[C@@H]3CCCN[C@@H]3C2)c(F)cc2c(=O)c(C(=O)O)cn(C3CC3)c12 | Mycobacterium tuberculosis | 0.60 |
| CO[C@H]1/C=C/O[C@@]2(C)Oc3c(C)c(O)c4c(O)c(c(/C=N/N5CCN(C)CC5)c(O)c4c3C2=O)NC(=O)/C(C)=C\C=C\[C@H](C)[C@H](O)[C@@H](C)[C@@H](O)[C@@H](C)[C@H](OC(C)=O)[C@@H]1C | Mycobacterium tuberculosis | -2.10 |
| COc1cnc2ccc(=O)n(CCN3CCC(c4nc5cc(Cl)c(F)cc5[nH]4)CC3)c2c1 | Mycobacterium tuberculosis | -1.22 |
| COc1cnc2ccc(=O)n(CCN3CCC(c4nc5cc(C(F)(F)F)ccc5[nH]4)CC3)c2c1 | Mycobacterium tuberculosis | -0.11 |
| NS(=O)(=O)c1ccc(Oc2cnc3ccc(=O)n(CCN4CCC(c5nc6cc(C(F)(F)F)ccc6[nH]5)CC4)c3c2)cc1 | Mycobacterium tuberculosis | -0.41 |
| O=C(O)c1cn(C2CC2)c2cc(N3CCNCC3)c(F)cc2c1=O | Mycobacterium tuberculosis | 0.90 |
| COc1cnc2ccc(=O)n(CCN3CCC(c4nc5cc(C#N)c(C)cc5[nH]4)CC3)c2c1 | Mycobacterium tuberculosis | -0.11 |
| NNC(=O)c1ccncc1 | Mycobacterium tuberculosis | -1.22 |
